- protocol-details: gradient 5% acetonitrile 3 min, to 50% in 2 min, to 85% in 15 min, held 3 min, 100 µL/min
- condition-label: column: Zorbax Extend-C18 2.1 x 50 mm; eluents: water / acetonitrile, 0.1% formic acid
Criterion: RP-LC retention time meeting or surpassing 800 s. Met: 1. Not met: 0.

Hi team, for `COc1ccc(C2(CNC(=O)c3cc(-c4ccccc4)n[nH]3)CCOCC2)cc1` , is the recorded RP-LC retention time at or above 800 s?
0

// repeat for `Cc1cc(=O)n(CC(=O)Nc2ccc(F)c(F)c2)c(N2CCCCC2)n1` and report
0

Now consider `CCOc1ccc(NC(=O)c2c(NC(C)=O)sc3c2CCCC3)cc1` and answer again.
1

Try this compound too: `Cc1ccc(-c2ccc(-n3nc(C)c(S(=O)(=O)N4CCCC4)c3C)nn2)cc1`
1

Also, `Fc1cccc(Cc2noc(-c3nc(-c4ccccc4F)no3)n2)c1` please.
1

// repeat for CN(C)c1cc(N2CCCC(NC(=O)c3cccn3C)C2)ncn1 (stereo not given) and report
0

Next record, please: `CCc1nc(-c2ccc3c(c2)CCN3C(=O)Cc2ccc(OC)cc2)no1`
1

Now consider `Cc1ccc(-c2csc(NC(=O)Cn3c(=O)sc4ccccc43)n2)cc1` and answer again.
1

And `CCc1ccc(-c2ccc(=O)n(CCc3nc(-c4ccc5c(c4)OCO5)no3)n2)cc1` ?
1

// data source = the METLIN SMRT retention time set (Domingo-Almenara et al. 2019)
